tested on: MDA-MB-435 melanoma; test: NCI-60 one-dose screen, 48 h (100 = growth as untreated, 0 = no growth, -100 = all killed); details: 10 µM
The panel holds about 83,000 compounds, 20% with a hit somewhere; the sample as a whole holds those more often.
Flag rule - growth less than 30% flags condition met; the remaining entries get condition not met.

Solved cases below.
{"COMPOUND": "CC(C)(C)OC(=O)N1CCc2c(sc3ncnc(N/N=C/c4ccccc4Br)c23)C1", "ASSIGNED CATEGORY": "condition not met"}
{"COMPOUND": "COc1cc2cc(Oc3ccc(NC(=O)Nc4ccc(Cl)c(Cl)c4)cc3)c(C)nc2cc1OC", "ASSIGNED CATEGORY": "condition met"}
{"COMPOUND": "COc1ccc(-c2cc(-c3ccccc3)nc(SCCCC(=O)NO)n2)cc1", "ASSIGNED CATEGORY": "condition met"}
{"COMPOUND": "CC(=O)Oc1cc(OC(C)=O)c2ccccc2c1OC(C)=O", "ASSIGNED CATEGORY": "condition met"}

Okay, now this compound:
## Task hey, is growth for CC(C)N(CCOc1ccc(-c2nc3sccn3c2-c2ccnc(S(C)(=O)=O)n2)cc1)C(C)C lower than 30% or not?
## Result condition not met

---

test system: RPMI-8226 leukemia; test: NCI-60 one-dose screen, 48 h (100 = growth as untreated, 0 = no growth, -100 = all killed); conditions: 10 µM
This is part of a sample that, as a whole, favours compounds with a hit. Of some 83,000 tested, about 20% had one in any assay.
# if value of growth reaches 50%, tag fulfilled; if it stays below, tag not fulfilled

Example entries and their recorded answers appear below.
{"COMPOUND": "CNS(=O)(=O)Oc1ccc(-c2ccc3occc3c2)cc1", "ASSIGNED CATEGORY": "fulfilled"}
{"COMPOUND": "CCCCN1C(=O)CC(SC2CC(=O)N(CCCC)C2=O)C1=O (stereo not given)", "ASSIGNED CATEGORY": "fulfilled"}
{"COMPOUND": "O=C(CN1CCN(C(=O)c2ccccc2)CC1)Nc1ccccc1SCc1ccccc1", "ASSIGNED CATEGORY": "fulfilled"}
{"COMPOUND": "O=C(N/N=C/c1ccc(Cl)cc1)c1ccccc1Nc1cccc(C(F)(F)F)c1", "ASSIGNED CATEGORY": "fulfilled"}
{"COMPOUND": "Cc1ccc(/C=C/C(=O)C(=O)/C=C/c2ccc(C)cc2)cc1", "ASSIGNED CATEGORY": "not fulfilled"}

## Task Please check the record Cc1ccccc1N1C(=O)c2cc(S(N)(=O)=O)c(Cl)cc2NC1C (stereo not given) and state if its growth is at or above 50%.
## Result fulfilled

## Task Hi team, for COc1cc(-c2nn(-c3cccc(NC(=O)CN4CCOCC4)c3)cc2-c2cccnc2)ccc1Cl , is the recorded growth at or above 50%?
## Result fulfilled

## Task Given the entry CCCC1(CN2c3ccccc3Sc3ccc(Cl)cc32)CCN(CC)C1 (stereo not given) , answer whether its growth meets or surpasses 50%.
## Result not fulfilled

## Task Has CCN(CC)CCCC(C)Nc1c2ccc(Cl)cc2nc2ccc(OC)cc12 (stereo not given) a recorded growth greater than or equal to 50%?
## Result not fulfilled

## Task For this compound, is measured growth 50% or higher? CC1OC2CC(=O)OC2C2=C1C(=O)c1c(O)c3c(c(O)c1C2=O)C1CC(O)C3(O)C(C)O1 (stereo not given)
## Result not fulfilled

---

tested on: MALME-3M melanoma; assay: NCI-60 one-dose screen, 48 h (100 = growth as untreated, 0 = no growth, -100 = all killed); settings: 10 µM
Compounds without any hit were thinned out: in the full panel of roughly 83,000, 20% have a hit.
We use 40% as the dividing line for growth: on or above the line is rule met, below is rule not met.

Completed entries (count: 5):
{"MOLECULE": "C=CCn1c(SCC(=O)Nc2ccc(C(=O)/C=C/c3ccc(OC)cc3)cc2)nnc1-c1ccc(OC)c(OC)c1", "ASSIGNED CATEGORY": "rule met"}
{"MOLECULE": "COc1cc(C(=O)n2nc(-c3cc(OC)c(OC)c(OC)c3)nc2N)cc(OC)c1OC", "ASSIGNED CATEGORY": "rule met"}
{"MOLECULE": "CC(=O)N[C@H](C(=O)N[C@@H](CCCNC(=N)N)C(=O)N[C@@H](CCCCN)C(=O)N[C@@H](CCCNC(=N)N)C(=O)NC(C(=O)N[C@@H](CC(C)C)C(=O)N[C@@H](CCCNC(=N)N)C(=O)N[C@@]1(C)CCC/C=C\\CCC[C@@](C)(C(=O)N[C@@H](CCCNC(=N)N)C(=O)N[C@@H](CCC(=O)O)C(=O)N[C@@H](CC(C)C)C(=O)N[C@H](C(=O)N[C@@H](CCC(=O)O)C(N)=O)C(C)C)NC(=O)[C@H](CCC(N)=O)NC(=O)[C@H](CC(C)C)NC(=O)[C@H](CC(C)C)NC1=O)[C@@H](C)O)C(C)C (stereo partly specified)", "ASSIGNED CATEGORY": "rule not met"}
{"MOLECULE": "COc1ccc2cc(-c3nc4ccccc4s3)c(Cl)nc2c1OC", "ASSIGNED CATEGORY": "rule met"}
{"MOLECULE": "COc1cc2cc(Oc3ccc(NC(=O)Nc4cccc(C(F)(F)F)c4)cc3)c(C)nc2cc1OC", "ASSIGNED CATEGORY": "rule not met"}

Could you now look at the following molecule, please?
## Task Given CC(C)(C)c1ccc(S(=O)(=O)Oc2ccc(NC(=O)C3CCCCC3)cc2)cc1 , state whether its growth is at least 40%.
## Result rule met

---

system: SF-268 CNS; assay: NCI-60 one-dose screen, 48 h (100 = growth as untreated, 0 = no growth, -100 = all killed); details: 10 µM
The panel holds about 83,000 compounds, 20% with a hit somewhere; the sample as a whole holds those more often.
MEASUREMENT KIND: growth (%)
Write down the numeric answer in % and omit the unit.

{"COMPOUND": "O=C1c2c(c3c4ccccc4n(CCCCCCN4CCOCC4)c3c3[nH]c4ccccc4c23)C(=O)N1O", "RESULT UNIT": "%", "RECORDED MEASUREMENT": 92.9}
{"COMPOUND": "Cc1ccc(NC(=S)NNC(=S)Nc2ccc(C)cc2)cc1", "RESULT UNIT": "%", "RECORDED MEASUREMENT": 85}
{"COMPOUND": "COc1cc(-c2ccc[nH]2)[nH]c1/C=C1\\N=C(C)C(C(=O)NC(C)C)=C1C", "RESULT UNIT": "%", "RECORDED MEASUREMENT": 44.4}
{"COMPOUND": "O=C1CC(SC(=S)C2CCCC2=O)C(=O)N1 (configuration not stated)", "RESULT UNIT": "%", "RECORDED MEASUREMENT": 102}
{"COMPOUND": "C/C(=C/CCC(C)[C@@H]1CC[C@]2(C)C3=C(CC[C@@]12C)[C@@]1(C)CCC(=O)C(C)(C)[C@@H]1CC3)C(=O)O (some centres not stated)", "RESULT UNIT": "%", "RECORDED MEASUREMENT": -92.2}
{"COMPOUND": "CN(C)CCC1(c2ccccc2)CCN(C)C1=O (configuration not stated)", "RESULT UNIT": "%", "RECORDED MEASUREMENT": 99.9}
{"COMPOUND": "COc1cc(-c2nn(-c3cccc(NC(=O)NCCNC(=O)c4cccc(C(F)(F)F)c4)c3)cc2-c2ccncc2)ccc1Cl", "RESULT UNIT": "%", "RECORDED MEASUREMENT": 41.8}
{"COMPOUND": "Nc1cc(-c2ccncc2)c[nH]c1=O", "RESULT UNIT": "%", "RECORDED MEASUREMENT": 103}

## Task Quote SF-268 CNS growth for entry Cc1cc(Br)nnc1Br .
## Result 107

## Task Please report growth with SF-268 CNS for item CCCN1CN2C(=O)N3CN(CCC)CN4C(=S)N(C1)C2C34 (configuration not stated) .
## Result 97.3

## Task Quote SF-268 CNS growth for entry CCN(CC)CCOc1cccc2c1C(=O)c1cccc(OCCN(CC)CC)c1C2=O .
## Result 40.8

---

tested on: SF-268 CNS; assay: NCI-60 one-dose screen, 48 h (100 = growth as untreated, 0 = no growth, -100 = all killed); details: 10 µM
The panel holds about 83,000 compounds, 20% with a hit somewhere; the sample as a whole holds those more often.
MEASUREMENT KIND: growth (%)
Express the result in % but write the number alone.

{"COMPOUND": "CSc1nc2c(c(=O)n1C)CN(Cc1ccccc1)C(=O)CN2", "growth / %": 104}
{"COMPOUND": "COc1ccc2c(c1)C(=O)/C(=C/c1ccc([N+](=O)[O-])o1)O2", "growth / %": -72.7}
{"COMPOUND": "CCc1ccc(C2=NN(c3ccc(S(C)(=O)=O)cc3)C(=O)CC2)cc1", "growth / %": 42.8}

## Task Query growth for CN(C)CCCSc1ccccc1NC1=C(Cl)C(=O)C(Nc2ccccc2SCCCN(C)C)=C(Cl)C1=O
## Result 43.7
